# Test system: U2OS
# assay_text: Multiplex assay against U2OS
# Assay type: toxicity, cell-based
# protocol_conditions: human, 12 h, 10 µM, compound concentration 10 uM, replicate 1
parameter: Population Membrane Permeable-Phenotype (%)

chem_smiles: CN(c1cc(C(F)(F)F)nc(OCCC(=O)O)n1)c1cccc2c1CCC2
unit_name: %
obs_value: 9
--
chem_smiles: C[C@@H](Oc1cc(-n2cnc3ccc(CN4CCN(C)CC4)cc32)sc1C(N)=O)c1ccccc1C(F)(F)F
unit_name: %
obs_value: 81
--
chem_smiles: CCCc1cc(C)[nH]c(=O)c1CNC(=O)c1cc(-c2ccc(N3CCN(C(C)C)CC3)nc2)cc2c1cnn2C(C)C
unit_name: %
obs_value: 64
--
chem_smiles: CC(C)c1cc(Nc2nc(N3CCC[C@H](N)C3)ncc2C(N)=O)cc(C(C)C)n1
unit_name: %
obs_value: 88
--
chem_smiles: Cc1ccc(NC(=O)Nc2cc(C(F)(F)F)ccc2F)cc1Nc1ccc2c(c1)NC(=O)/C2=C\c1ccc[nH]1
unit_name: %
obs_value: 11
--
chem_smiles: C=CC(=O)Nc1cc(-n2c(=O)ccc3cnc4ccc(-c5ccc(NS(C)(=O)=O)cc5)cc4c32)ccc1C
unit_name: %
obs_value: 10
--
chem_smiles: Oc1cccc(-c2nc(N3CCOCC3)c3oc4ncccc4c3n2)c1
unit_name: %
obs_value: 35

---

# Growth Rate values compiled below
# Test system: U2OS
# assay_text: Incucyte cell viability with U2OS; note: filed as whole numbers so only -1 and 0 and 1 occur
# Assay type: toxicity, cell-based
# protocol_conditions: human, 18 h, 10 µM, compound concentration 10 uM, replicate number 1, timepoint 18 hours

compound: Cc1ccc2[nH]c(CNCCCc3ccncc3)cc(=O)c2c1 [UCSF924NC]
measured_target: U2OS
Growth Rate: 0

compound: OCCn1cc(-c2ccc3c(c2)CCC3=NO)c(-c2ccncc2)n1
measured_target: U2OS
Growth Rate: 1

compound: NC(=O)c1ccc2nc(-c3ccc(C4(N)CCC4)cc3)c(-c3ccccc3)n2n1
measured_target: U2OS
Growth Rate: 1

compound: Cc1cc2c(cc1C1(c3ccc(C(=O)O)cn3)CC1)C(C)(C)CCC2(C)C
measured_target: U2OS
Growth Rate: 1

compound: COc1cc(C)c(Sc2cnc(NC(=O)c3ccc(CNC(C)C(C)(C)C)cc3)s2)cc1C(=O)N1CCN(C(C)=O)CC1 (stereo not drawn)
measured_target: U2OS
Growth Rate: 0

compound: COc1ccc(Br)cc1S(=O)(=O)NC(=O)/C=C/c1ccccc1Cc1ccc2ccccc2c1
measured_target: U2OS
Growth Rate: 1

compound: CN1CCN(c2ccc(-c3cccc(CN4CCOCC4)c3)cc2NC(=O)c2c[nH]c(=O)cc2C(F)(F)F)CC1
measured_target: U2OS
Growth Rate: 0

compound: Cl.NC[C@@H]1O[C@H](C23CC4CC(CC(C4)C2)C3)Cc2c1ccc(O)c2O
measured_target: U2OS
Growth Rate: 0

compound: COc1ccc(CCc2nc3cc(-c4c(C)noc4C)ccc3n2C[C@H](C)N2CCOCC2)cc1Cl
measured_target: U2OS
Growth Rate: 1

compound: O=C(NNS(=O)(=O)c1ccccc1)c1cc(-c2ccnnc2)ccc1F
measured_target: U2OS
Growth Rate: 0

compound: COc1cc(C#N)ccc1S(=O)(=O)Nc1ccc2c(c1)cc(C)c(=O)n2C
measured_target: U2OS
Growth Rate: 0

compound: CCOC(=O)c1ncn2c1CN(C)C(=O)c1cc(F)ccc1-2
measured_target: U2OS
Growth Rate: 0

compound: Cl.Cn1c2c(c3ccc(Cl)c(Cl)c31)C(C#N)C1(CCNCC1)NC2=O (stereo not drawn)
measured_target: U2OS
Growth Rate: 0

compound: CCCCC#Cc1nc(NC)c2ncn([C@@H]3O[C@H](CO)[C@@H](O)[C@H]3O)c2n1
measured_target: U2OS
Growth Rate: 1

compound: O=C1c2ccc(Nc3ccc(F)cc3F)cc2CCc2ccc(OC[C@H](O)CO)cc21 [Skepinone-L]
measured_target: U2OS
Growth Rate: 0

compound: C[C@H]1C[C@H]2[C@@H]3CCC4=CC(=O)C=C[C@]4(C)[C@@]3(Cl)[C@@H](O)C[C@]2(C)[C@@]1(O)C(=O)CO
measured_target: U2OS
Growth Rate: 1

compound: Cc1cc(OCC(=O)O)cc(C)c1Cc1ccc(O)c(C(C)C)c1
measured_target: U2OS
Growth Rate: 0

compound: CCOc1ccn(-c2ccc(F)cc2)c(=O)c1C(=O)Nc1ccc(Oc2ccnc(N)c2Cl)c(F)c1
measured_target: U2OS
Growth Rate: 0

Origin of the recorded values: ChEMBL document CHEMBL4689842
